The compounds below have reported IC50 for human GSK3β (Homo sapiens).

{"columns": ["compound", "IC50"],
 "data": [
  ["CCOC(=O)c1cnc(NCCNc2ccc([N+](=O)[O-])c(N)n2)nc1-c1ccc(C#N)cc1", "≤ 1 µM"],
  ["CCOC(=O)c1cnc(NCCNc2ccc([N+](=O)[O-])cn2)nc1-c1ccc(SC)cc1", "≤ 1 µM"],
  ["N#Cc1ccc(-c2nc(NCCNc3ccc([N+](=O)[O-])cn3)ncc2C(=O)NCC(N)=O)cc1", "≤ 1 µM"],
  ["Nc1nc(NCCNc2ncc(N3C(=O)c4ccccc4C3=O)c(-c3ccc(Cl)cc3Cl)n2)ccc1[N+](=O)[O-]", "≤ 1 µM"],
  ["N#Cc1ccc(-c2nc(NCCNc3ccc([N+](=O)[O-])cn3)ncc2C(=O)O)cc1", "≤ 1 µM"],
  ["O=[N+]([O-])c1ccc(NCCNc2nccc(-c3cccc(O)c3)n2)nc1", "≤ 10 µM"],
  ["CCOC(=O)c1cnc(NCCc2ccccn2)nc1-c1ccco1", "≤ 10 µM"],
  ["COC(=O)c1cnc(NCCNc2ccc([N+](=O)[O-])cn2)nc1-c1cccnc1", "≤ 10 µM"],
  ["CCOC(=O)c1cnc(NCCNc2ccc([N+](=O)[O-])c(N)n2)nc1-c1ccc(N2CCOCC2)cc1", "≤ 1 µM"],
  ["O=[N+]([O-])c1ccc(NCCNc2ncc(-c3ccc(F)cc3)cn2)nc1", "≤ 10 µM"],
  ["O=[N+]([O-])c1ccc(NCCNc2ncc(-c3ncc[nH]3)c(-c3ccc(Cl)cc3)n2)nc1", "≤ 1 µM"],
  ["NC(=O)c1ccc(-c2ccnc(NCCCOc3cccc(C(F)(F)F)c3)n2)cc1", "≤ 1 µM"],
  ["N#Cc1cnc(NCCNc2ccc([N+](=O)[O-])cn2)nc1-c1ccccc1", "≤ 1 µM"]
]}
